Record form. Attribute: IC50. Fill in for each entry.
Test system: T-24
assay-comment: Antiproliferative activity against human T-24 cells by MTT assay
Format: functional, cell-based
Numbers only, in µM.

Cc1ccc(S(=O)(=O)N2CCN(c3c([N+](=O)[O-])cc4c5c(cccc35)C(=O)N(CCc3ccc5c(c3)OCO5)C4=O)CC2)cc1	9.17
CN(C)CCN1C(=O)c2cccc3cc(N)cc(c23)C1=O [AMONAFIDE]	5.01

# ---- query molecule ----
Entry `CNCCCN1C(=O)c2cccc3c(N4CCN(C(=O)OC(C)(C)C)CC4)c([N+](=O)[O-])cc(c23)C1=O` , system T-24: what IC50 was measured?
3.05

Source listed as ChEMBL document CHEMBL4732079.
